# measurement.notes: viability loss with induced miR-34 in A549 – imaging, A549 dox-inducible miR-34, nuclei and caspase counts, primary screen (AID 1347080); further: test concentration not given here
# conditions.used: A549 miR-34 inducible, Hoechst nuclei count, 48 h; measured here: relative caspase fold change +Dox/-Dox
property.label: fold change
Answers are plain numbers.

Your task in this section: give fold change for each listed record.
1. O=C(O)CCC/C=C\C[C@H]1C(=O)C=C[C@@H]1/C=C/[C@@H](O)CCc1ccccc1
2. O=C(Nc1ccc2c(=O)cc(-c3nn[nH]n3)oc2c1)c1ccc(OCCCCc2ccccc2)cc1
3. CNCc1ccc(-c2[nH]c3cc(F)cc4c3c2CCNC4=O)cc1
4. CCCCNC(=O)NS(=O)(=O)c1ccc(CO)cc1
5. COc1ccc(CCC(=O)Nc2nc3ccc(Cl)cc3s2)cc1OC
6. C#C[C@]1(O)CC[C@H]2[C@@H]3CCC4=CC(=O)CCC4[C@H]3CC[C@@]21CC (stereo partly specified)
7. Cc1c(CC(C)(C)C(=O)O)n(Cc2ccc(Cl)cc2)c2ccc(F)cc12
8. CCCCC[C@](C)(O)/C=C/[C@H]1C(=O)C[C@H](O)[C@@H]1C/C=C\CCCC(=O)O

0.959
0.807
1.62
0.775
0.345
0.754
0.72
0.91

Give fold change for all compounds that follow.
1. CCCCCCCCCCCSCC(=O)O
2. CCCCC[C@@](C)(O)/C=C/[C@H]1C(=O)C[C@H](O)[C@@H]1C/C=C\CCCC(=O)O
3. CC1CCN=C(N)C1 (stereo unspecified)
4. Cn1cc(-c2ccc3nnc(Sc4ccc5ncccc5c4)n3n2)cn1
5. CCCCC[C@@](C)(O)/C=C/[C@H]1C=CC(=O)[C@@H]1C/C=C\CCCC(=O)O
6. COc1ccc(-n2nc(C(N)=O)c3c2C(=O)N(c2ccc(N4CCCCC4=O)cc2)CC3)cc1
7. CC(=O)N[C@H](Cc1c[nH]c2ccccc12)C(=O)OCc1cc(C(F)(F)F)cc(C(F)(F)F)c1
8. CCCS(=O)(=O)Nc1ccc(F)c(C(=O)c2c[nH]c3ncc(-c4ccc(Cl)cc4)cc23)c1F

1. 1.04
2. 1.24
3. 0.767
4. 0.78
5. 1.14
6. 0.921
7. 0.896
8. 1

Please supply fold change for each of the following items, keeping them in order.
1. O=C(O)c1c[nH]c2c(ccc3cccnc32)c1=O
2. C=CCN1CCN(c2nc3ccccc3nc2C#N)CC1
3. CCCCC/C=C\C/C=C\CC/C=C\CCCC(=O)OC

1: 0.866; 2: 1.37; 3: 0.414

Count: 2. Required value per item: fold change.
1. O=C(CCCCCc1ccccc1)c1nc2ncccc2o1
2. CC[C@H](CC[C@@H](C)[C@H]1CC[C@H]2[C@@H]3CC=C4C[C@@H](O)CC[C@]4(C)[C@H]3CC[C@]12C)C(C)C

1. 0.866
2. 0.534
